target_system: T1, mouse TIGIT expressed on cells (mouse, UniProt P86176 29-249)
T1 construct: whole, on cells; on Jurkat cells engineered to express mouse TIGIT; also called mTIGIT; Jurkat-mTIGIT
T1 sequence (looked up): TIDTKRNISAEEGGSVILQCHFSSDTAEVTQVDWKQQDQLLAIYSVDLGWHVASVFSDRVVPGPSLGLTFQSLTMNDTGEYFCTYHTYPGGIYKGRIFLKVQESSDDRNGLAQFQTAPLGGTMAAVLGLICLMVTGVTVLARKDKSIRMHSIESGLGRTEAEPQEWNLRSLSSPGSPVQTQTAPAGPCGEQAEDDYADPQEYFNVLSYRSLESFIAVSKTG
test: flow cytometry, 100 nM Ab, Jurkat-mTIGIT vs untransfected
Overview of recorded FON (Fold Over Negative) for various binders
Provide the reading as a plain figure in fold.

{"columns": ["binder", "recorded_value"],
 "data": [
  ["anti-TIGIT antibody clone 29478 (IgG) (antibody, V domains shown) VH: EVQLVESGGGVVQPGRSLRLSCAASGFTFESYGMVWVRQAPGKGLEWVASILYDGSNRYYADSVKGRFTVSRDNSKNTLYLQMNSLRAEDTAVYYCARVSYYYDSVELRWAEYFQHWGQGTLVTVSS VL: EIVLTQSPATLSLSPGERATLSCRASQSVSSYLAWYQQKPGQAPRLLIYDASKRATGIPARFSGSGSGTDFTLTISSLEPEDFAVYYCQQVHNFPLTFGGGTKVEIK", 500]
]}

Let us move to another entry and its FON (Fold Over Negative).
Challenge: Using the record for anti-TIGIT antibody clone 29513 (IgG) (antibody, V domains shown) VH: QVQLVQSGAEVKKPGSSVKVSCKASGGTFQNYAISWVRQAPGQGLEWMGVIVPIFGTANYAQKFQGRVTVTADESTSTAYMELSSLRSEDTAVYYCARLHLGQKAYYGMDVWGQGTTVTVSS VL: DIQMTQSPSSLSASVGDRVTITCRASQSISSYLNWYQQKPGKAPKLLIYAASSLQSGVPSRFSGSGSGTDFTLTISSLQPEDFATYYCQQRYVFPPTFGGGTKVEIK , report its FON (Fold Over Negative).
Response given: 406

Attribution: patent US20200407445A1
